Sourced from patent US20070020327A1

target: HLA-A*0201 (human); assay: competition with 125I-labeled probe peptide for purified HLA, gel filtration; conditions: remark: other sources report otherwise
Reported endpoint: pIC50
// scale note: pIC50 = -log10(conc_M); give the bare number

Given item GTPEGDLVYV (modifications not checked) [Peptide 1418.29 … (PSM.168.T2)] , the value recorded as its pIC50 is 6.50
